Target: Lysosomal α-mannosidase (Homo sapiens)
Sequence (O00754 50-1011): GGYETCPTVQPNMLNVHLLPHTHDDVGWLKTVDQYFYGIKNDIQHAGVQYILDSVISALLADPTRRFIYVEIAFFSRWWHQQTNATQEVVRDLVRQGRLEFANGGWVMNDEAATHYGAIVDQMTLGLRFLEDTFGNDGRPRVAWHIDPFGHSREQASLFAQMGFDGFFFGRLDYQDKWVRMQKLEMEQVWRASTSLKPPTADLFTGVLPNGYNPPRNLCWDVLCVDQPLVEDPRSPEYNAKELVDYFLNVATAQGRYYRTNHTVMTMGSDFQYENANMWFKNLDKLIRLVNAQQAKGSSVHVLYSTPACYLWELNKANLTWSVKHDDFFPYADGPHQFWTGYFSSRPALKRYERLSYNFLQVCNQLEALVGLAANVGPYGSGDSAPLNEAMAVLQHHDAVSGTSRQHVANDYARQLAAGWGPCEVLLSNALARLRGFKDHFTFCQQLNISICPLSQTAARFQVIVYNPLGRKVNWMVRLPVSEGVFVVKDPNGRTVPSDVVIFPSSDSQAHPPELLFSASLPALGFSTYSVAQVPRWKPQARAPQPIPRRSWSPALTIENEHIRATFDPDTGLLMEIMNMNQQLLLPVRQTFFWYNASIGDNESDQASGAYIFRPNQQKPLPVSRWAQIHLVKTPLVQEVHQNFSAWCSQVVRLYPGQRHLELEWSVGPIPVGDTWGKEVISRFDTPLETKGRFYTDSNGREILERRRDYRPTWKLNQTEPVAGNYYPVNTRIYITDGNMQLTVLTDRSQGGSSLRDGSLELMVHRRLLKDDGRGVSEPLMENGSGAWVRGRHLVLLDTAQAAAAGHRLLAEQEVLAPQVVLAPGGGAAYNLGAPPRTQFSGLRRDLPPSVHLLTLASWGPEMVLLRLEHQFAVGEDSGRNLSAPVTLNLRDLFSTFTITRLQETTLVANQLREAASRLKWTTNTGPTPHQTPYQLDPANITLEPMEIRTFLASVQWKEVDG
Counter-ions that a name gives are not always drawn.
assay readout: pIC50
Note on units: pIC50 is unitless, being -log10 of a concentration expressed in mol/L.

Query block: Given the molecule "O=C1N[C@H](CO)[C@@H](O)[C@H](O)[C@@H]1O" , write its reported pIC50.
Result block: 4.30

Query block: Identify measured pIC50 associated with C[C@H]1NC[C@@H](O)[C@@H](O)[C@@H]1O [D-Rhamnojirimycin (5), hydrochloride]
Result block: 3.00

* * *

Target: Lysosomal α-mannosidase (Homo sapiens, UniProt O00754)
Test: Human liver glycosidase assay, lysosomal α-mannosidase
Format: biochemical
Design: human liver extracts; from tissue; host or cells: human liver extracts
Conditions: human liver; read-out: Ki, lysosomal α-mannosidase
assay readout: pKi
Units for pKi: none; it is -log10 of a concentration expressed in mol/L.

Query block: Write down the reported pKi (system: Lysosomal α-mannosidase (Homo sapiens, UniProt O00754)) of "OC[C@@H](O)[C@H]1NC[C@@H](O)[C@H]1O"
Result block: 4.89

Query block: Using Lysosomal α-mannosidase (Homo sapiens, UniProt O00754) as the test system, report measured pKi of "C[C@@H](O)[C@H]1NC[C@@H](O)[C@H]1O" .
Result block: 5.89

* * *

assay readout: IC50 (µM)
Give just the numeric value; µM need not be written.

Query block: Please look at O=C1N[C@H](CO)[C@@H](O)[C@H](O)[C@@H]1O [Mannono-1,5-lactam (2), D-mannonolactam] and tell me its recorded IC50 on β-mannosidase (Homo sapiens, UniProt O00462).
Sequence (O00462 18-879): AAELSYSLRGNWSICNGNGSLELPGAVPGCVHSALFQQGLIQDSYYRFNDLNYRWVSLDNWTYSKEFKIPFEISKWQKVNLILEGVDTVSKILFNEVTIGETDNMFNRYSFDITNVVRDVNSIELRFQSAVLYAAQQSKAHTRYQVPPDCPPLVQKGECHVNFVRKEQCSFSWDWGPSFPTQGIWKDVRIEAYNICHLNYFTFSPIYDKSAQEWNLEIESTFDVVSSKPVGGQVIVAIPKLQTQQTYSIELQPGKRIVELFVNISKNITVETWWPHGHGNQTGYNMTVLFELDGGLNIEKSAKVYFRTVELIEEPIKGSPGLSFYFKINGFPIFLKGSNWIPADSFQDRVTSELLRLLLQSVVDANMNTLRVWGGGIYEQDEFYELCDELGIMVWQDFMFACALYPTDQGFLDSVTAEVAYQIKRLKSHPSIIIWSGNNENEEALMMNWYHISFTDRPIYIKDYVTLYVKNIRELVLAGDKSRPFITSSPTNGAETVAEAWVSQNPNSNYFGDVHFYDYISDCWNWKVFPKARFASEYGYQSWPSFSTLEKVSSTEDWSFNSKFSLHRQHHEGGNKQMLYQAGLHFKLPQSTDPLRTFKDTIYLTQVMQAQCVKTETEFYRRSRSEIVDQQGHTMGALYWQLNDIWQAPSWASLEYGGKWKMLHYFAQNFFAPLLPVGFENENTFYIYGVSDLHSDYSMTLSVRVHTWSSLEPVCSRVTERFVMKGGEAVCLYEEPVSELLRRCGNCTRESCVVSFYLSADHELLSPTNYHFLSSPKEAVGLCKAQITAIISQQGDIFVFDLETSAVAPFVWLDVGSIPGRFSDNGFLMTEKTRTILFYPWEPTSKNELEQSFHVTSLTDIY
Result block: 10

* * *

Molecular target: Lysosomal α-mannosidase (Homo sapiens)
Experiment: Human liver glycosidase assay, lysosomal α-mannosidase
Assay type: biochemical
Design: human liver extracts; from tissue; host or cells: human liver extracts
Method: Melting points were recorded on a Kofler hot block. Proton nuclear magnetic resonance (δH) spectra were recorded on Varian Gemini 200 (at 200 MHz), Bruker WH 300 (300 MHz), or Bruker AM 500 (500 MHz) spectrometers. Carbon nuclear magnetic resonance (δC) spectra were recorded on a Varian Gemini 200 (50 MHz) or a Bruker 250 (62.9 MHz) spectrometer. […] Infrared spectra were recorded on a Perkin-Elmer 297, or on a Perkin-Elmer 781 spectrophotometer. […]
assay readout: Ki (µM)
Express your answer in µM, writing the number without its unit.

Query block: State its Ki: "OC[C@H]1NC[C@@H](O)[C@@H](O)[C@@H]1O"
Result block: 750

* * *

Test system: α-rhamnosidase (naringinase)
Assay: Naringinase assay with p-nitrophenyl α-L-rhamnoside
Assay type: biochemical
Conditions: 1 mM compound; p-nitrophenyl α-L-rhamnoside 1.75 mM
Where a name gives a salt, the structure may show the parent alone.
Could you please report measured Inhibition (%) at 1 mM, α-rhamnosidase (naringinase) for the items listed next?

Query block: With α-rhamnosidase (naringinase) as the test system, provide measured Inhibition (%) at 1 mM, α-rhamnosidase (naringinase) for this compound: "C[C@@H]1NC[C@H](O)[C@H](O)[C@H]1O"
Result block: 0%

Query block: Please respond with reported Inhibition (%) at 1 mM, α-rhamnosidase (naringinase) (system α-rhamnosidase (naringinase)) for "O=C1N[C@H](CO)[C@@H](O)[C@H](O)[C@@H]1O" .
Result block: 12%

Query block: Give Inhibition (%) at 1 mM, α-rhamnosidase (naringinase); test system α-rhamnosidase (naringinase); compound C[C@H]1NC[C@@H](O)[C@@H](O)[C@@H]1O [D-Rhamnojirimycin (5), hydrochloride]
Result block: 10%

Query block: State, for α-rhamnosidase (naringinase), measured Inhibition (%) at 1 mM, α-rhamnosidase (naringinase) of the compound listed here: "C[C@H]1NC(=O)[C@@H](O)[C@@H](O)[C@@H]1O"
Result block: 3%

Query block: Give α-rhamnosidase (naringinase) Inhibition (%) at 1 mM, α-rhamnosidase (naringinase) for the following compound: "C[C@@H]1NC(=O)[C@H](O)[C@H](O)[C@H]1O"
Result block: 0%

* * *

For each entry below, report its inhibition at 1000 µM value.
Biological target: UniProtKB O00754
Assay: Human liver glycosidase assay, lysosomal α-mannosidase
Format: biochemical
Set-up: human liver extracts; from tissue; host or cells: human liver extracts
Conditions: 1 mM compound; human liver; 4-methylumbelliferyl-glycoside substrate
Counter-ions that a name gives are not always drawn.
The figure you give is taken to be in %; do not add the unit.

Query block: Give inhibition at 1000 µM for the following compound: "C[C@@H](O)[C@H]1NC[C@@H](O)[C@H]1O"
Result block: 100

Query block: Let me know recorded inhibition at 1000 µM for "C[C@H]1NC(=O)[C@@H](O)[C@@H](O)[C@@H]1O" , thanks.
Result block: 86

Query block: State, in one line, measured inhibition at 1000 µM of "C[C@@H]1NC(=O)[C@H](O)[C@H](O)[C@H]1O"
Result block: 0

Query block: For the compound "O=C1N[C@H](CO)[C@@H](O)[C@H](O)[C@@H]1O" , report inhibition at 1000 µM.
Result block: 94

Query block: Give the reported value of inhibition at 1000 µM for this record: "C[C@@H]1NC[C@H](O)[C@H](O)[C@H]1O"
Result block: 19

Query block: Give a short answer stating reported inhibition at 1000 µM for "OC[C@@H](O)[C@H]1NC[C@@H](O)[C@H]1O" .
Result block: 89

Query block: Identify measured inhibition at 1000 µM associated with C[C@H]1NC[C@@H](O)[C@@H](O)[C@@H]1O [D-Rhamnojirimycin (5), hydrochloride]
Result block: 55

* * *

Biological target: Lysosomal α-fucosidase (Homo sapiens)
Construct: human liver extracts; from tissue; host or cells: human liver extracts
Sequence (P04066 32-466): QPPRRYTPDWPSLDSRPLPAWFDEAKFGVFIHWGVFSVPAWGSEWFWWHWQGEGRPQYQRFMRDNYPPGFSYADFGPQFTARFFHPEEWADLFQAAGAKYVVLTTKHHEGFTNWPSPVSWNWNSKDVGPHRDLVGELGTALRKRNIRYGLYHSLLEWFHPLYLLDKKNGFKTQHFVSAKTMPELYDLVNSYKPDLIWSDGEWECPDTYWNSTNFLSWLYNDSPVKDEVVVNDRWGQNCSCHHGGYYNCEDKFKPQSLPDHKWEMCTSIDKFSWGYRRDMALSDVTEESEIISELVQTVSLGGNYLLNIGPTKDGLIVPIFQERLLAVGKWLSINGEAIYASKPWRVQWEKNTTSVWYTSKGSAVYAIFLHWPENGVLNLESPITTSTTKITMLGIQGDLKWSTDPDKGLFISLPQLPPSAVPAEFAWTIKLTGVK
Assay: Human liver glycosidase assay, lysosomal α-fucosidase
Format: biochemical
Details: 1 mM compound; human liver; read-out: Inhibition (%) at 1 mM, lysosomal α-fucosidase
assay readout: inhibition at 1000 µM (%)
Please state the figure in %; there is no need to write the unit.

Query block: Consider the molecule "C[C@H]1NC(=O)[C@@H](O)[C@@H](O)[C@@H]1O" and give its recorded inhibition at 1000 µM.
Result block: 0

Query block: Give inhibition at 1000 µM for "O=C1N[C@H](CO)[C@@H](O)[C@H](O)[C@@H]1O"
Result block: 0

Query block: Item "C[C@@H](O)[C@H]1NC[C@@H](O)[C@H]1O" : provide inhibition at 1000 µM
Result block: 21

Query block: Indicate the recorded inhibition at 1000 µM value for this molecule: "OC[C@@H](O)[C@H]1NC[C@@H](O)[C@H]1O"
Result block: 24

Query block: Please report the measured inhibition at 1000 µM for "C[C@@H]1NC(=O)[C@H](O)[C@H](O)[C@H]1O"
Result block: 0

All figures here come from patent US5210089A.
